Test system: S. pneumoniae
ASSAY PROTOCOL: MIC by agar plate dilution against clinical isolates of S. pneumoniae
Assay type: cell-based
CONDITION SET: Streptococcus pneumoniae, 6 strains of S. pneumoniae (clinical isolates), 18 to 24 hr, 35° C, read-out: MIC or MIC range, S. pneumoniae
Experimental: Minimal Inhibitory concentrations (MIC) of inhibitors against clinical isolates of S. pneumoniae, H. influenzae and M. catarrhalis obtained from the Public Health and Clinical Microbiology Laboratory, Addenbrooke's Hospital, Hills Road, Cambridge CB2 2QW, UK, were determined by a standard agar plate dilution method following recommended in British Society for Antimicrobial Chemotherapy Working Party. 1991. […]
READOUT: MIC

[
  {
    "COMPOUND STRUCTURE STRING": "O=CN(O)C[C@@H](CC1CCCC1)C(=O)N1CCCN1C(=O)c1ccc(F)cc1",
    "RESULT": "16 mg/L"
  },
  {
    "COMPOUND STRUCTURE STRING": "O=CN(O)C[C@@H](CC1CCCC1)C(=O)N1CCCCN1C(=O)c1ccc(F)cc1",
    "RESULT": "0.5 to 4 mg/L"
  },
  {
    "COMPOUND STRUCTURE STRING": "O=CN(O)C[C@@H](CC1CCCC1)C(=O)N1CCCCN1C(=O)N1CCC(Cc2ccccc2)CC1",
    "RESULT": "4 to 16 mg/L"
  },
  {
    "COMPOUND STRUCTURE STRING": "O=CN(O)C[C@@H](CC1CCCC1)C(=O)N1CCCN1C(=O)c1ccc2c(c1)OCO2",
    "RESULT": "8 to 16 mg/L"
  },
  {
    "COMPOUND STRUCTURE STRING": "O=CN(O)C[C@@H](CC1CCCC1)C(=O)N1CCCN1C(=O)Nc1ccc(F)cc1",
    "RESULT": "8 to 16 mg/L"
  },
  {
    "COMPOUND STRUCTURE STRING": "O=CN(O)C[C@@H](CC1CCCC1)C(=O)N1CCCCN1C(=O)c1ccc(C(F)(F)F)cc1",
    "RESULT": "0.5 to 4 mg/L"
  },
  {
    "COMPOUND STRUCTURE STRING": "CC(C)(C)OC(=O)N1CCCCN1C(=O)[C@H](CC1CCCC1)CN(O)C=O",
    "RESULT": "4 to 16 mg/L"
  },
  {
    "COMPOUND STRUCTURE STRING": "O=CN(O)C[C@@H](CC1CCCC1)C(=O)N1CCCCN1C(=O)Nc1ccc(F)cc1F",
    "RESULT": "4 to 8 mg/L"
  }
]

---

Test system: M. catarrhalis
ASSAY PROTOCOL: MIC by agar plate dilution against clinical isolates of M. catarrhalis
Format: cell-based
CONDITION SET: Moraxella catarrhalis, 3 strains of M. catarrhalis (clinical isolates), 18 to 24 hr, 35° C, read-out: MIC or MIC range, M. catarrhalis
READOUT: MIC

[
  {
    "COMPOUND STRUCTURE STRING": "COc1cccc(NC(=O)N2CCCCN2C(=O)[C@H](CC2CCCC2)CN(O)C=O)c1",
    "RESULT": "< 0.125 µg/mL"
  },
  {
    "COMPOUND STRUCTURE STRING": "COc1cccc(NC(=O)N2CCCN2C(=O)[C@H](CC2CCCC2)CN(O)C=O)c1",
    "RESULT": "< 0.125 µg/mL"
  },
  {
    "COMPOUND STRUCTURE STRING": "O=CN(O)C[C@@H](CC1CCCC1)C(=O)N1CCCCN1C(=O)Nc1ccc(C(F)(F)F)cc1",
    "RESULT": "< 0.125 µg/mL"
  },
  {
    "COMPOUND STRUCTURE STRING": "O=CN(O)C[C@@H](CC1CCCC1)C(=O)N1CCCCN1C(=O)Nc1ccc(F)cc1",
    "RESULT": "< 0.125 µg/mL"
  },
  {
    "COMPOUND STRUCTURE STRING": "O=CN(O)C[C@@H](CC1CCCC1)C(=O)N1CCCCN1C(=O)Nc1ccc(F)cc1F",
    "RESULT": "< 0.125 µg/mL"
  },
  {
    "COMPOUND STRUCTURE STRING": "O=CN(O)C[C@@H](CC1CCCC1)C(=O)N1CCCN1C(=O)Nc1ccc(F)cc1",
    "RESULT": "< 0.125 µg/mL"
  },
  {
    "COMPOUND STRUCTURE STRING": "O=CN(O)C[C@@H](CC1CCCC1)C(=O)N1CCCCN1C(=O)Nc1ccccc1",
    "RESULT": "< 0.125 µg/mL"
  },
  {
    "COMPOUND STRUCTURE STRING": "O=CN(O)C[C@@H](CC1CCCC1)C(=O)N1CCCCN1C(=O)c1ccoc1",
    "RESULT": "< 0.93 µg/mL"
  },
  {
    "COMPOUND STRUCTURE STRING": "CC(C)(C)OC(=O)N1CCCCN1C(=O)[C@H](CC1CCCC1)CN(O)C=O",
    "RESULT": "< 0.125 µg/mL"
  }
]
